# TARGET_DESC: T1, human Claudin18.2 (human)
# T1 construct: also called CLDN18.2
# EXPERIMENT: FACS, Claudin18.2-HEK293 cells
ASSAY_ENDPOINT: EC50 (nM)
Give a bare numeral; the unit nM is implied.

# return recorded EC50 for entry chimeric 407D8G1 (antibody, human IgG1, kappa, V domains shown, chimeric, human IgG1/kappa constant regions) VH: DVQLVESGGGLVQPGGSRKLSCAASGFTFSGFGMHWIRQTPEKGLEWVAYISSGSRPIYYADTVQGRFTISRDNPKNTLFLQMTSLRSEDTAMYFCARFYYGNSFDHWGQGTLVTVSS VL: DIVMTQSPSFLTVTAGEKVTMSCKSSQSLLNSGNQKNYLTWYQQKPGQPPKLLIYWASTRESGVPDRFTGSGSGTDFTLTISSVQAEDLALYYCQNAYSFPLTFGAGTKLELKR
0.533

Supply EC50 value. Item: chimeric 410H6H3 (antibody, human IgG1, kappa, V domains shown, chimeric, human IgG1/kappa constant regions; also called 410H6H3-Chimeric) VH: DVLLVESGGGLVQPGGSRKLSCAASGFTFSSSGMHWVRQAPEKGLEWVAYISSGSNTIYYADTLKGRFTISRDNPKNTLFLQMTSLRSEDTAMYYCARIYYGNSFVYWGQGTLVTVSA VL: DIVMTQSPSSLTVTAGEKVIMSCKSSQSLLNSGNQKNYLTWYQQKPGQPPKMLIYWASTRESGVPDRFRGSGSGTDFTLTISSVQAEDLAVYYCQNNYYYPLTFGTGTKLALKR
0.778
